molecular target: Poly [ADP-ribose] polymerase 1 (Homo sapiens); assay: Inhibition of human recombinant PARP1 expressed in Escherichia coli BL21(DE3) incubated for 1 hr by ELISA assay
Property name: IC50 (nM)

1: O=C1CN(C(=O)c2cc(Cn3c(=O)[nH]c(=O)c4ccccc43)ccc2F)CCN1Cc1ccccc1
2: CC(C)CN1CCN(C(=O)c2cc(Cn3c(=O)[nH]c(=O)c4ccccc43)ccc2F)CC1=O
Prompt: Identify the entry with the larger IC50. Options: 1 and 2 Mark your selection by writing its label.
Response: 2
(2: 4.68 nM, 1: 2.54 nM)

---

target: UniProt Q9UGN5; test: Inhibition of PARP2 (unknown origin)
Property name: IC50 (nM)
Report as a plain number; the unit nM is understood.

Prompt: Give a short answer stating reported IC50 for C[C@]12CCCN1CC1=NNC(=O)c3cc(F)cc4[nH]c2c1c34 [PAMIPARIB] .
Response: 0.3

---

target: Poly [ADP-ribose] polymerase 1 (Homo sapiens, UniProt P09874); assay: Inhibition of human recombinant PARP1 expressed in Escherichia coli BL21(DE3) incubated for 1 hr by ELISA assay
Sequence (P09874 whole entry): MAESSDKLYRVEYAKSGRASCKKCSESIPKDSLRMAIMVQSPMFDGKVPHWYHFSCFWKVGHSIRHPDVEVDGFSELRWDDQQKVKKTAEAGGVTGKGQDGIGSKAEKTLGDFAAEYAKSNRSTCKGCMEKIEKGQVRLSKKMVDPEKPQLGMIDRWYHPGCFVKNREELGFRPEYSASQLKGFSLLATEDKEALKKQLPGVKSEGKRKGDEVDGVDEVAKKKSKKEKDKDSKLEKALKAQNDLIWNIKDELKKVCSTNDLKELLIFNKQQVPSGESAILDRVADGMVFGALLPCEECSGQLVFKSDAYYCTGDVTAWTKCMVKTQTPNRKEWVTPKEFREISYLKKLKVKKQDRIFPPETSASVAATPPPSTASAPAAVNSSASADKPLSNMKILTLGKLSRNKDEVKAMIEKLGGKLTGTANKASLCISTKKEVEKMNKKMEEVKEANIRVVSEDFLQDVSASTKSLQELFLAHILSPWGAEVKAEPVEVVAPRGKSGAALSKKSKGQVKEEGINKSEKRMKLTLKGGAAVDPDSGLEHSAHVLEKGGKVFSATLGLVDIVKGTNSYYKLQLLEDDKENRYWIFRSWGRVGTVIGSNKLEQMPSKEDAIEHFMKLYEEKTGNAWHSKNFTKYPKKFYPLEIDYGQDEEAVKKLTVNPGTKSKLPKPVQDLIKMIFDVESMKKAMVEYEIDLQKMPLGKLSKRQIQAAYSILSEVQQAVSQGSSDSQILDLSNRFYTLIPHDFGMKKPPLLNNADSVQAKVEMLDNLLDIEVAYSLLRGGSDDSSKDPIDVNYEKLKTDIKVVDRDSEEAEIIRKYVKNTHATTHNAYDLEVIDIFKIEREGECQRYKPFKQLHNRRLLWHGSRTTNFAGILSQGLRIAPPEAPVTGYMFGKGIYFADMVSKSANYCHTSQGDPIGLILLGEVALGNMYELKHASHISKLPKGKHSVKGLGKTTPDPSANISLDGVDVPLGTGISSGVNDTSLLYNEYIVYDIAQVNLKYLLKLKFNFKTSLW
Property name: IC50 (nM)

Some molecules with recorded IC50:
[[record]]
molecule = "O=C(c1cc(Cn2c(=O)[nH]c(=O)c3ccccc32)ccc1F)N1CCN(C2CCCCC2)C(=O)C1"
target = "Poly [ADP-ribose] polymerase 1 (Homo sapiens, UniProt P09874)"
property_name = "IC50"
reported_value = 2.85

[[record]]
molecule = "O=C1CN(C(=O)c2cc(Cn3c(=O)[nH]c(=O)c4ccccc43)ccc2F)CCN1CC1CCCC1"
target = "Poly [ADP-ribose] polymerase 1 (Homo sapiens, UniProt P09874)"
property_name = "IC50"
reported_value = 2.46

[[record]]
molecule = "O=C(c1cc(Cn2c(=O)[nH]c(=O)c3ccccc32)ccc1F)N1CCN(c2ccccc2)C(=O)C1"
target = "Poly [ADP-ribose] polymerase 1 (Homo sapiens, UniProt P09874)"
property_name = "IC50"
reported_value = 1.02

[[record]]
molecule = "O=C1CN(C(=O)c2cc(Cn3c(=O)[nH]c(=O)c4ccccc43)ccc2F)CCN1CC1CC1"
target = "Poly [ADP-ribose] polymerase 1 (Homo sapiens, UniProt P09874)"
property_name = "IC50"
reported_value = 9.75

[[record]]
molecule = "O=C(c1cc(Cn2c(=O)[nH]c(=O)c3ccccc32)ccc1F)N1CC(=O)N2CCCCC2C1 (centres undefined)"
target = "Poly [ADP-ribose] polymerase 1 (Homo sapiens, UniProt P09874)"
property_name = "IC50"
reported_value = 9.85

[[record]]
molecule = "C#CCN1CCN(C(=O)c2cc(Cn3c(=O)[nH]c(=O)c4ccccc43)ccc2F)CC1=O"
target = "Poly [ADP-ribose] polymerase 1 (Homo sapiens, UniProt P09874)"
property_name = "IC50"
reported_value = 15.5

[[record]]
molecule = "O=C1CN(C(=O)c2cc(Cn3c(=O)[nH]c(=O)c4ccccc43)ccc2F)CCN1CC(F)(F)F"
target = "Poly [ADP-ribose] polymerase 1 (Homo sapiens, UniProt P09874)"
property_name = "IC50"
reported_value = 3.79


1: O=C(c1cc(Cn2c(=O)[nH]c(=O)c3ccccc32)ccc1F)N1CC(=O)N2CCCC2C1 (centres undefined)
2: COCCN1CCN(C(=O)c2cc(Cn3c(=O)[nH]c(=O)c4ccccc43)ccc2F)CC1=O
Prompt: # min-compare on IC50 between 1 and 2 Mark your selection by writing its label.
Response: 2
(2: 4.86 nM, 1: 17.2 nM)

---

biological target: Poly [ADP-ribose] polymerase 1 (Homo sapiens); assay: Inhibition of human recombinant N-terminal GST-tagged PARP1 (2 to 1014(end) residues) expressed in Sf9 cells
Property name: pIC50
On this scale, pIC50 is minus log10 of a concentration expressed in M (mol/L).

Prompt: Param request: pIC50 | system Poly [ADP-ribose] polymerase 1 (Homo sapiens) | item CCC(CC)N1CCN(C(=O)c2cc(Cn3c(=O)[n-]c(=O)c4ccccc43)ccc2F)CC1=O.[Na+]
Response: 9.03

---

test: Binding affinity to cat PARP2 assessed as dissociation constant by SPR assay; design: species or system Felis catus
Property name: pKd
On this scale, pKd is minus log10 of a concentration expressed in M (mol/L).

Prompt: Give a short answer stating reported pKd for CCC(CC)N1CCN(C(=O)c2cc(Cn3c(=O)[n-]c(=O)c4ccccc43)ccc2F)CC1=O.[Na+] .
Response: 9.12

---

test: Tmax in BALB/c mouse at 2.5 mg/kg, iv measured upto 24 hrs by LC-MS/MS analysis; format: ADME, organism-based; settings: in vivo
Property name: Tmax (min)
Report as a plain number; the unit min is understood.

Prompt: Give a short answer stating reported Tmax for CCC(CC)N1CCN(C(=O)c2cc(Cn3c(=O)[n-]c(=O)c4ccccc43)ccc2F)CC1=O.[Na+] .
Response: 1.8

---

test: Half life in BALB/c mouse at 25 mg/kg, po measured upto 24 hrs by LC-MS/MS analysis; type: ADME, organism-based; settings: in vivo
Property name: half-life (min)

1: CCC(CC)N1CCN(C(=O)c2cc(Cn3c(=O)[nH]c(=O)c4ccccc43)ccc2F)CC1=O
2: CCC(CC)N1CCN(C(=O)c2cc(Cn3c(=O)[n-]c(=O)c4ccccc43)ccc2F)CC1=O.[Na+]
Prompt: Identify the entry with the larger half-life. Options: 1 and 2 Mark your selection by writing its label.
Response: 1
(1: 30.6 min, 2: 16.2 min)

---

experiment: AUC (0 to t) in BALB/c mouse at 2.5 mg/kg, iv measured upto 24 hrs by LC-MS/MS analysis; assay type: ADME, organism-based; design: time < 24 hrs, dose 2.5 mg/kg, route iv; conditions: in vivo
Property name: AUC(0-t) at 24 h (ng·h/mL)
Report as a plain number; the unit ng·h/mL is understood.

Prompt: Give a short answer stating reported AUC(0-t) at 24 h for CCC(CC)N1CCN(C(=O)c2cc(Cn3c(=O)[n-]c(=O)c4ccccc43)ccc2F)CC1=O.[Na+] .
Response: 417

---

assay: AUC (0 to infinity) in BALB/c mouse at 25 mg/kg, po measured upto 24 hrs by LC-MS/MS analysis; format: ADME, organism-based; parameters: dose 25 mg/kg, time < 24 hrs, route po; conditions: in vivo
Property name: AUC(0-inf) (ng·h/mL)

a: CCC(CC)N1CCN(C(=O)c2cc(Cn3c(=O)[nH]c(=O)c4ccccc43)ccc2F)CC1=O
b: CCC(CC)N1CCN(C(=O)c2cc(Cn3c(=O)[n-]c(=O)c4ccccc43)ccc2F)CC1=O.[Na+]
Prompt: Identify the entry with the larger AUC(0-inf). Options: a and b Mark your selection by writing its label.
Response: b

---

assay: AUC (0 to infinity) in BALB/c mouse at 2.5 mg/kg, iv measured upto 24 hrs by LC-MS/MS analysis; format: ADME, organism-based; design: dose 2.5 mg/kg, time < 24 hrs, route iv; details: in vivo
Property name: AUC(0-inf) (ng·h/mL)
Report as a plain number; the unit ng·h/mL is understood.

Prompt: Give a short answer stating reported AUC(0-inf) for CCC(CC)N1CCN(C(=O)c2cc(Cn3c(=O)[n-]c(=O)c4ccccc43)ccc2F)CC1=O.[Na+] .
Response: 419

---

target: Poly [ADP-ribose] polymerase 2 (Homo sapiens); assay: Inhibition of human recombinant PARP2 expressed in Escherichia coli BL21(DE3) incubated for 1 hr by ELISA assay
Sequence (Q9UGN5 whole entry): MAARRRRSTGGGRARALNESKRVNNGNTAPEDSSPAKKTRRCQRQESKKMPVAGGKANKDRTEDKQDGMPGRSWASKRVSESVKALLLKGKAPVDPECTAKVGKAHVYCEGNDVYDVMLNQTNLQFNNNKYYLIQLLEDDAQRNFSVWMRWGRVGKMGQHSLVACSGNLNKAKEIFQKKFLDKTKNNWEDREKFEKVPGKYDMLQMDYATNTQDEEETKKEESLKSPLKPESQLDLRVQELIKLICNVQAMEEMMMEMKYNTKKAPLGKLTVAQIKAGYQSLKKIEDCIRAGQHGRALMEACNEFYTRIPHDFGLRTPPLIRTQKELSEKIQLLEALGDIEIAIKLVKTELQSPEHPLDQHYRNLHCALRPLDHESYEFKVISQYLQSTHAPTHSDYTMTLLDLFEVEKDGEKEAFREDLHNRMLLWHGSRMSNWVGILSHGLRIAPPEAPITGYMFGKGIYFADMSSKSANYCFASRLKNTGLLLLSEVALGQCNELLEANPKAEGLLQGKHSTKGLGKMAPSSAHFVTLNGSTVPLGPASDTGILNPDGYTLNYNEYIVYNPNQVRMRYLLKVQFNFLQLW
pIC50: −log10 of the molar value.
Property name: pIC50

1: CN(C)CCN1CCN(C(=O)c2cc(Cn3c(=O)[nH]c(=O)c4ccccc43)ccc2F)CC1=O
2: CC(C)=CCN1CCN(C(=O)c2cc(Cn3c(=O)[nH]c(=O)c4ccccc43)ccc2F)CC1=O
Prompt: # min-compare on pIC50 between 1 and 2 Mark your selection by writing its label.
Response: 1

A: COC(=O)CN1CCN(C(=O)c2cc(Cn3c(=O)[nH]c(=O)c4ccccc43)ccc2F)CC1=O
B: CCC(C)CN1CCN(C(=O)c2cc(Cn3c(=O)[nH]c(=O)c4ccccc43)ccc2F)CC1=O (stereo not drawn)
Prompt: Identify the entry with the larger pIC50. Options: A and B Mark your selection by writing its label.
Response: B
(B: 8.88, A: 8.57)

A: O=C(c1cc(Cn2c(=O)[nH]c(=O)c3ccccc32)ccc1F)N1CCN(c2ccccc2)C(=O)C1
B: O=C(c1cc(Cn2c(=O)[nH]c(=O)c3ccccc32)ccc1F)N1CCN(C2CCCC2)C(=O)C1
Prompt: Identify the entry with the larger pIC50. Options: A and B Mark your selection by writing its label.
Response: B

P: CCCCCN1CCN(C(=O)c2cc(Cn3c(=O)[nH]c(=O)c4ccccc43)ccc2F)CC1=O
Q: O=C1CN(C(=O)c2cc(Cn3c(=O)[nH]c(=O)c4ccccc43)ccc2F)CCN1
Prompt: Identify the entry with the larger pIC50. Options: P and Q Mark your selection by writing its label.
Response: P
